Test system: RXF 631
Test: NCI tumour cell line growth inhibition, 48 h
Active and inactive are the calls of the source. Cut-off read from the data, not from the text of the source: active = GI50 up to about 1.1 µM and inactive = higher.
Measured GI50 by item

Example results:
1) CC1O[C@@H]2CCCCC(=O)[C@]2(C)[C@H]1C (stereo partly specified)
> 100 µM (inactive)
2) Cc1cc(NC(=O)C2C3C=CC(O3)C2C(=O)O)no1 (stereo unspecified)
80.5 µM (inactive)
3) CCC(Oc1ccc(OC)c2ccccc(=O)c12)C(=O)O (stereo unspecified)
> 100 µM (inactive)

Please report the recorded GI50 for COc1cc(C2C(C(=O)O)=C(C)Oc3cc4c(cc32)OCO4)cc(OC)c1OC (stereo unspecified) . 36.1 µM (inactive)

Please report the recorded GI50 for COC(=O)C(=O)C(C(=O)OC)C(=O)C(=O)Nc1c(C)cccc1C (stereo unspecified) . > 100 µM (inactive)

Please report the recorded GI50 for CC(=O)Oc1cccc2c1C(=O)C(Br)(Br)CCC2 . 17.4 µM (inactive)
